FYI, the data here is from patent US11230533B2.

Assay: Approximate solubility by solvent addition
Type: physicochemical
Conditions: aqueous with cosolvent or surfactant or cyclodextrin, thermodynamic from solid; solvent acetone/water 50:50 (v/v); read-out: Solubility
measuredMetric: solubility

Tell me the measured solubility of COc1cc(C(C)C)c(Oc2cnc(N)nc2N)cc1S(N)(=O)=O [Compound A Free Base Form A] , please.
< 1000 µg/mL

---

Test: Approximate solubility by solvent addition
Type: physicochemical
Conditions: organic solvent or mixture, thermodynamic from solid; solvent EtOH; read-out: Solubility
measuredMetric: solubility

Tell me the measured solubility of COc1cc(C(C)C)c(Oc2cnc(N)nc2N)cc1S(N)(=O)=O [Compound A Free Base Form A] , please.
< 1000 µg/mL

---

Experiment: Approximate solubility by solvent addition
Assay type: physicochemical
Settings: organic solvent or mixture, thermodynamic from solid; solvent TFE; read-out: Solubility
measuredMetric: solubility

Tell me the measured solubility of COc1cc(C(C)C)c(Oc2cnc(N)nc2N)cc1S(N)(=O)=O [Compound A Free Base Form A] , please.
2000 µg/mL

---

Test: Approximate solubility by solvent addition
Assay type: physicochemical
Conditions: organic solvent or mixture, thermodynamic from solid; solvent EtOAc; read-out: Solubility
measuredMetric: solubility

Tell me the measured solubility of COc1cc(C(C)C)c(Oc2cnc(N)nc2N)cc1S(N)(=O)=O [Compound A Free Base Form A] , please.
< 1000 µg/mL

---

Test: Approximate solubility by solvent addition
Assay type: physicochemical
Conditions: organic solvent or mixture, thermodynamic from solid; solvent ACN/water 90:10 (v/v); read-out: Solubility
measuredMetric: solubility (µg/mL)
Only the number, expressed in µg/mL, is required.

Tell me the measured solubility of COc1cc(C(C)C)c(Oc2cnc(N)nc2N)cc1S(N)(=O)=O [Compound A Free Base Form A] , please.
1000

---

Assay: Approximate solubility by solvent addition
Assay type: physicochemical
Conditions: organic solvent or mixture, thermodynamic from solid; solvent DMSO; read-out: Solubility
measuredMetric: solubility
Include the unit after the number when you answer.

Tell me the measured solubility of COc1cc(C(C)C)c(Oc2cnc(N)nc2N)cc1S(N)(=O)=O [Compound A Free Base Form A] , please.
20 mg/mL

---

Test: Approximate solubility by solvent addition
Format: physicochemical
Settings: organic solvent or mixture, thermodynamic from solid; solvent acetone; read-out: Solubility
measuredMetric: solubility

Tell me the measured solubility of COc1cc(C(C)C)c(Oc2cnc(N)nc2N)cc1S(N)(=O)=O [Compound A Free Base Form A] , please.
< 1000 µg/mL
